From: ChEMBL document CHEMBL5131445

Test system: MDR1
Assay: Permeability across apical to basolateral side in dog MDCK-MDR1 cells
Type: ADME, cell-based, Canis lupus familiaris
Conditions: read-out: permeability
QUANTITY NAME: Papp A→B

COMPOUND SMILES: C=CC(=O)N(C)CCOc1c(N)ncnc1-c1ccc(CN2CCN(CC(C)C)CC2=O)c(C)c1
QUANTITY NAME: Papp A→B
OBS VALUE: 0.32 ×10⁻⁶ cm/s

---

Test: Clearance in iv dosed Sprague-Dawley rat
Assay type: ADME, organism-based
Conditions: in vivo
Listed next: entries and their corresponding clearance.

COMPOUND SMILES: C=CC(=O)N(C)CCOc1c(N)ncnc1-c1cc(F)cc(NC(=O)c2ccc(C3CC3)cc2F)c1C
clearance / mL/min/kg: 214

COMPOUND SMILES: C=CC(=O)N(C)CCOc1c(N)ncnc1-c1ccc(CN2CCN(CC(C)C)CC2=O)c(C)c1
clearance / mL/min/kg: 126
